Examples of compounds with documented inhibition at 10 µM follow.
- TARGET_UNDER_TEST: MAO-B (Rattus norvegicus)
- Construct: A crude synaptosomal fraction (P2) was obtained from the brain of rats (F344/Crj); from tissue; host or cells: rat (F344/Crj) brain, crude synaptosomal fraction (P2), homogenized
- Sequence (P19643 1-520): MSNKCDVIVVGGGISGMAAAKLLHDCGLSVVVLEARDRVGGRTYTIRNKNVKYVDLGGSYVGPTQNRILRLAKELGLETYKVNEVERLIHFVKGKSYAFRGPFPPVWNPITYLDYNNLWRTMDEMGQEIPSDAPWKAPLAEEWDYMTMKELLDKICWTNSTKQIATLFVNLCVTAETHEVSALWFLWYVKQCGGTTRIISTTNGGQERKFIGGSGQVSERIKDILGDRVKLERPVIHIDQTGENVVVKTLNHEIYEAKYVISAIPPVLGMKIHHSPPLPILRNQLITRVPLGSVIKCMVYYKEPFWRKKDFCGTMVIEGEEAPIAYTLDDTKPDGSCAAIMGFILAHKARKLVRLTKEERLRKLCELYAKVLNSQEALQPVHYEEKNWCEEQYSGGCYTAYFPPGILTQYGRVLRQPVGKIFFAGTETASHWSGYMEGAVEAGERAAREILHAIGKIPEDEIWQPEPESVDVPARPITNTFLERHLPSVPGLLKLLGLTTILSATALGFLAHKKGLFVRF
- EXPERIMENT_DESCRIPTION: Inhibition of monoamine oxidase: MAO-B
- Format: biochemical, rats (F344/Crj)
- CONDITION_DESCRIPTION: 10 μM; 5 μM [14C]-2-phenethylamine substrate; None = 100; read-out: Inhibition rate (%) MAO-B
READOUT_KIND: inhibition at 10 µM (%)

                                   compound         readout_kind  assay_result
0  Nc1c(N2CCCCC2)c(C2CCCCC2=O)nc2ccccc12 (centres unmarked)  inhibition at 10 µM          87.5
1  Nc1ccnc(C2CCCCC2=O)c1N1CCOCC1 (centres unmarked)  inhibition at 10 µM          71.2
2  Nc1c2c(nc(C3CCCCC3O)c1N1CCCCC1)CCCC2 (centres unmarked)  inhibition at 10 µM          89.4
3              CCNc1c(N2CCOCC2)nc2ccccc2c1N  inhibition at 10 µM            63
4   Nc1c(N2CCCCC2)cnc2ccccc12 [drawing 149]  inhibition at 10 µM          82.9

* * *

- TARGET_UNDER_TEST: MAO-A (Rattus norvegicus)
- Construct: A crude synaptosomal fraction (P2) was obtained from the brain of rats (F344/Crj); from tissue; host or cells: rat (F344/Crj) brain, crude synaptosomal fraction (P2), homogenized
- Sequence (P21396 whole entry): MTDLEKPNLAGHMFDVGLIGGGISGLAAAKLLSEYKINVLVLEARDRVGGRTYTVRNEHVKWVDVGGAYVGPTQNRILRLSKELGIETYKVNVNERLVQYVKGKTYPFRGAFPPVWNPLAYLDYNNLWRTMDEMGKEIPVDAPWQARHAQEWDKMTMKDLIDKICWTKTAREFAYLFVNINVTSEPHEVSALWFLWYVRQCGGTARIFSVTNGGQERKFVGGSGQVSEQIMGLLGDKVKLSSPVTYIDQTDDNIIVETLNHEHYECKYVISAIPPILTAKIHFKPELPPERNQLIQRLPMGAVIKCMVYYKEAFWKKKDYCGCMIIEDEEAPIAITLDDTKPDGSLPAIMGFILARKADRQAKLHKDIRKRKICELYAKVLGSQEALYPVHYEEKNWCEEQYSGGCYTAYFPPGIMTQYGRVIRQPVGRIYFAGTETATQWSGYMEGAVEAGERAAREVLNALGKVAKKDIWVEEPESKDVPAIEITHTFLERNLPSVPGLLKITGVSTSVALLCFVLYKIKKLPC
- EXPERIMENT_DESCRIPTION: Inhibition of monoamine oxidase: MAO-A
- Type: biochemical, rats (F344/Crj)
- CONDITION_DESCRIPTION: 10 μM; 12 μM [14C]-serotonin substrate; None = 100; read-out: Inhibition rate (%) MAO-A
- Experimental: Inhibition of Monoamine Oxidase (MAO): A crude synaptosomal fraction (P2) was obtained from the brain of rats (F344/Crj) in the usual manner and homogenized to perform MAO activity measurements. […] In accordance with the method of R. J. Wurtman and J. Axelrod described in Biochemical Pharmacol. 12, […], 1963, the homogenates were incubated in 100 mM phosphate buffer (pH 7.4) at 37° C. for 20 minutes and the effect of adding selected compounds at a concentration of 10 μM was evaluated.
# label = Fulfilled if inhibition at 10 µM >= 40% else Not fulfilled

>>> print(df.to_string())
                                   compound    label_value
0  Nc1c2c(nc(C3CCCCC3O)c1N1CCCCC1)CCCC2 (centres unmarked)      Fulfilled
1  Nc1c(N2CCCCC2)c(C2CCCCC2=O)nc2ccccc12 (centres unmarked)      Fulfilled
2   Nc1c(N2CCCCC2)cnc2ccccc12 [drawing 149]      Fulfilled
3              CCNc1c(N2CCOCC2)nc2ccccc2c1N  Not fulfilled
4  Nc1ccnc(C2CCCCC2=O)c1N1CCOCC1 (centres unmarked)      Fulfilled

Entry source: patent US5019574A
